Measured values drawn from patent US20250026813A1 for this set.

# TARGET DESC: full-length stabilised spike trimer protein of SARS-CoV-2 virus (in-house, soluble ECD with trimeris (SARS-CoV-2, UniProt P0DTC2 14-1208; P10104 458-484)
QUANTITY NAME: HTRF deltaF (deltaF)
Answer format: numeric, deltaF implied, no suffix.

GET /values?readout=HTRF deltaF&item= IMPI-004 (antibody, V domains shown) VH: QVQLVESGGGVVQPGRSLRLSCAASGFTFSSYGMHWVRQAPGKGLEWVAVIWYDGGNKYYADSVKGRFTISRDNSKNTLYLQMNSLRAEDTAVYYCARVNVLMGYGMDVWGQGTTVTVSS VL: EIVLTQSPGTLSLSPGDKATLSCRASQSIISSFLAWYQQKPGQAPRLLIYGASSRATGIPDRFSGSGSGTDFTLTISRLEPEDFAVYYCQQYGSSLTFGGGTKVEIK 952

Please find the next binder below.
GET /values?readout=HTRF deltaF&item= IMPI-042 (antibody, V domains shown) VH: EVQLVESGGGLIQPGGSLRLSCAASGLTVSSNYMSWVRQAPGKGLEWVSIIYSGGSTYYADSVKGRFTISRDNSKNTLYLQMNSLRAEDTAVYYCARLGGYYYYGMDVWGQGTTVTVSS VL: DIQMTQSPSSLSASVGERVTITCQASQDIRNYLNWYQKKPGKAPKLLIYDSSNLETGVPSRFSGGGSGTDFTFTISSLQPEDIATYYCQQYDNLPITFGQGTRLEIK 926
